assayedSystem: UniProtKB P04150
Sequence (P04150 whole entry): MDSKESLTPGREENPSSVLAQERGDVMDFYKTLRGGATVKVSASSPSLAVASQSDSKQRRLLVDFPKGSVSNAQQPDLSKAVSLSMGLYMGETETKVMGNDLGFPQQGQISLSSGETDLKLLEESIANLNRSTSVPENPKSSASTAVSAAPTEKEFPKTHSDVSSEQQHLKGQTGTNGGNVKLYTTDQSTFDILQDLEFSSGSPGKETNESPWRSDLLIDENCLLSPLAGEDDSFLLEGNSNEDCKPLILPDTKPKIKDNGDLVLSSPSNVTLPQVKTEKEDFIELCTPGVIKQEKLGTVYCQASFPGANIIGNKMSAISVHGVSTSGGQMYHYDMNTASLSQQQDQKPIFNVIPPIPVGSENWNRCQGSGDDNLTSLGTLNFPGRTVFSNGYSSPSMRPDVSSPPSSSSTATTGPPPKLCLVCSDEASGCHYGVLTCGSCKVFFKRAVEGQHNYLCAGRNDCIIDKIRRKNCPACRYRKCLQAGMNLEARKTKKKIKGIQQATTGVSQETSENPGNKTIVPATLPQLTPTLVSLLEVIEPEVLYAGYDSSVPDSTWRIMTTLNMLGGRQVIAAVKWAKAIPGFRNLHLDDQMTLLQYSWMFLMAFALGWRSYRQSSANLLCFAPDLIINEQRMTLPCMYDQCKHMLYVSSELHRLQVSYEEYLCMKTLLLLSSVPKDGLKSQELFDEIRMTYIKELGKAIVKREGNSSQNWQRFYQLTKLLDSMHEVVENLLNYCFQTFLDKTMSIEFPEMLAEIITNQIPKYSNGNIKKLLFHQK
procedureSummary: Glucocorticoid Receptor Binding Assay (II), fluorescence polarization competitor kit
recordedConditions: read-out: GR (Ki, nM) (measured in GR binding Assay II)
measuredAttribute: log10(Ki) (log10 of the value in nM)

• CC(C)Oc1ccc(-c2ccc3c(n2)Oc2c(F)cccc2[C@@H]3C(C)(C)C(=O)NC(N)=O)cc1F = -0.40
• CC(C)(C(=O)NC(N)=O)[C@H]1c2ccccc2Oc2nc(-c3ccc(C(=O)N4CCC(F)(F)C4)cc3)ccc21 = 0.25
• CC(C)(C(=O)NC(N)=O)[C@H]1c2ccccc2Oc2nc(-c3ccc(C(=O)N4CCCC4)cc3)ccc21 = 0.29
• CC(C)(C(=O)NC(N)=O)[C@H]1c2ccccc2Oc2nc(-c3ccc(C(=O)N4CCCC4)c(Cl)c3)ccc21 = 2.09
• CNC(=O)NC(=O)C(C)(C)[C@@H]1c2ccc(-c3ccc(N4CCOCC4)nc3)nc2Oc2c(F)cccc21 = 1.04
